Consider the following molecules; for each one, report its IC50.
# Tested on: HCT-116
# MEASUREMENT DESCRIPTION: In vitro cytotoxicity against the paclitaxel sensitive human colon carcinoma cell line HCT116
# Assay type: functional, cell-based
Give the value in nM but do not write nM after it.

# input // lookup IC50 for `CC(=O)O[C@H]1[C@@H]2CO[C@@H]2[C@@H]2OCOCCOCO[C@H]3C(=O)[C@@]2(C)[C@@H]1[C@H](OC(=O)c1ccccc1)[C@]1(O)C[C@H](OC(=O)[C@H](O)[C@@H](NC(=O)c2ccccc2)c2ccccc2)C(C)=C3C1(C)C`
# output 3

# input Repeat with `CC(=O)O[C@H]1[C@@H]2CO[C@@H]2[C@@H]2OCOCC(C)(C)COCO[C@H]3C(=O)[C@@]2(C)[C@@H]1[C@H](OC(=O)c1ccccc1)[C@]1(O)C[C@H](OC(=O)[C@H](O)[C@@H](NC(=O)c2ccccc2)c2ccccc2)C(C)=C3C1(C)C`
# output 17.2

# input # iterate: `CC(=O)O[C@H]1[C@@H]2CO[C@@H]2[C@@H]2OCOCCOC(=O)O[C@H]3C(=O)[C@@]2(C)[C@@H]1[C@H](OC(=O)c1ccccc1)[C@]1(O)C[C@H](OC(=O)[C@H](O)[C@@H](NC(=O)c2ccccc2)c2ccccc2)C(C)=C3C1(C)C`
# output 1.9

# input Try the molecule `CC(=O)O[C@H]1[C@@H]2CO[C@@H]2[C@@H]2OCOCCOCO[C@H]3C(=O)[C@@]2(C)[C@@H]1[C@H](OC(=O)c1ccccc1)[C@]1(O)C[C@H](OC(=O)[C@H](O)[C@@H](NC(=O)OC(C)(C)C)c2ccccc2)C(C)=C3C1(C)C`
# output 0.8

----------
# MEASUREMENT DESCRIPTION: Compound was evaluated for the ratio of IC50 of A2780/tub cell line to that of IC50 of A2780 cell line
# Type: functional
MEASURE: R/S ratio
# answer = number (no unit)

# input Param item = `CC(=O)O[C@H]1[C@@H]2CO[C@@H]2[C@@H]2OCOCCOC(=O)O[C@H]3C(=O)[C@@]2(C)[C@@H]1[C@H](OC(=O)c1ccccc1)[C@]1(O)C[C@H](OC(=O)[C@H](O)[C@@H](NC(=O)c2ccccc2)c2ccccc2)C(C)=C3C1(C)C` ; retrieve measured R/S ratio.
# output 32

# input Now the compound `CC(=O)O[C@H]1[C@@H]2CO[C@@H]2[C@@H]2OCOCC(C)(C)COCO[C@H]3C(=O)[C@@]2(C)[C@@H]1[C@H](OC(=O)c1ccccc1)[C@]1(O)C[C@H](OC(=O)[C@H](O)[C@@H](NC(=O)c2ccccc2)c2ccccc2)C(C)=C3C1(C)C`
# output 23

# input Here is the next compound: `CC(=O)O[C@H]1[C@@H]2CO[C@@H]2[C@@H]2OCOCCOCO[C@H]3C(=O)[C@@]2(C)[C@@H]1[C@H](OC(=O)c1ccccc1)[C@]1(O)C[C@H](OC(=O)[C@H](O)[C@@H](NC(=O)c2ccccc2)c2ccccc2)C(C)=C3C1(C)C`
# output 15

# input Another compound: `CC(=O)O[C@H]1[C@@H]2CO[C@@H]2[C@@H]2OCOCCOCO[C@H]3C(=O)[C@@]2(C)[C@@H]1[C@H](OC(=O)c1ccccc1)[C@]1(O)C[C@H](OC(=O)[C@H](O)[C@@H](NC(=O)OC(C)(C)C)c2ccccc2)C(C)=C3C1(C)C`
# output 6
